Origin of measurements: ChEMBL document CHEMBL2311477

- procedure_text: Inhibition of Escherichia coli DXR assessed as reduction of NADPH in NADP+ by spectrophotometric analysis
- stated_conditions: read-out: IC50
Exercise: state measured pIC50 for each of the compounds provided.
Conceptually, pIC50 converts a concentration in mol/L into minus its log10.

According to the records, this compound CC(=O)N(O)CCCP(=O)(O)O displays pIC50 of 7.82

Please fill in: pIC50 reported for CC(=O)N(O)CCC(N=[N+]=[N-])P(=O)(O)O (racemic) = 7.13

pIC50 for CC(=O)N(O)CCC(n1cc(-c2ccccc2)nn1)P(=O)(O)O (racemic) is 5.95

Form field pIC50, entry CC(=O)N(O)CCC(O)P(=O)(O)O (racemic) : 7.28

CC(=O)N(O)CCC(n1cc(C(C)(C)C)nn1)P(=O)(O)O (racemic) yielded pIC50 of 6.68

###

- Test system: Plasmodium falciparum
- procedure_text: Antimalarial activity against Plasmodium falciparum K1 infected in human erythrocytes assessed as parasite growth inhibition
- Format: functional, organism-based
Could you please report measured IC50 for the items listed next?
Please respond with the number in µM and leave the unit unwritten.

The value of IC50 measured for the compound CC(=O)N(O)CCC(n1cc(-c2ccccc2)nn1)P(=O)(O)O (racemic) turned out to be 2.75

Entry under test: COC(CCN(O)C(C)=O)P(=O)(O)O (racemic) . Its IC50 was 4

Value of IC50 reported for the compound CC(=O)N(O)CCC(n1cc(C(C)(C)C)nn1)P(=O)(O)O (racemic) is 7.76

Record CC(=O)N(O)CCC(NC(=O)c1ccccc1)P(=O)(O)O (racemic) . Reported IC50: 49

In plain terms, CC(=O)N(O)CCC(N=[N+]=[N-])P(=O)(O)O (racemic) has a documented IC50 of 1.98

Per the record, CC(=O)N(O)CCC(O)P(=O)(O)O (racemic) has IC50 of 1.82

The compound listed as CC(=O)N(O)CCC(n1ccnn1)P(=O)(O)O (racemic) shows IC50 equal to 8.96

Entry CC(=O)N(O)CCC(Oc1ccccc1)P(=O)(O)O (racemic) , IC50 reported as 13

###

I'd appreciate it if you could supply inhibition values for the items below.
- Tested on: Escherichia coli
- procedure_text: Inhibition of Escherichia coli DXR assessed as reduction of NADPH in NADP+ at 100 nM by spectrophotometric analysis
I only need the number, in %, no unit after it.

Measured inhibition, COC(CCN(O)C(C)=O)P(=O)(O)O (racemic) : 4.14

Just so you know, measured inhibition for CC(=O)N(O)CCC(NC(=O)c1ccccc1)P(=O)(O)O (racemic) came out at 1.42

Query CC(=O)N(O)CCC(n1ccnn1)P(=O)(O)O (racemic) yields inhibition of 3.32

Entry CC(=O)N(O)CCC(NC(=O)Nc1ccccc1)P(=O)(O)O (racemic) , inhibition reported as 1.3
